These measurements were taken from patent US12304912B2.

Tested on: RAF dimers in HCT-116 cells
Assay: HCT-116 AlphaLISA SureFire pERK1/2 cellular assay (dimer)
Assay type: cell-based
Settings: Homo sapiens, HCT-116; HCT116 cells, dimer, 1 hr; read-out: pERK HCT116 dimer (1 hr) plC50 (converted)
Experimental Readout: IC50 (nM)
Respond with the bare value in nM.

// below: answered molecules
In [3]: df
Out[3]:
                                   molecule  experimental_readout  reading
0  O=C(Nc1nccc(Oc2ccc3c(c2)CC(c2nc(-c4ccccc4)c[nH]2)CO3)n1)C1CC1 (stereo not shown)                  IC50      457
1  CC1CC1C(=O)Nc1cc(Oc2ccc3c(c2)CC(c2nc(-c4ccccc4)c[nH]2)CO3)ccn1 (stereo not shown)                  IC50      174
2  O=C(Nc1cc(Oc2ccc3c(c2)CC(c2nc(-c4ccccc4)c[nH]2)CO3)ccn1)C1CC1(F)F (stereo not shown)                  IC50     28.2

Recorded IC50 for O=C1CCc2c(Oc3ccc4c(c3)CC(c3nc(C5CCOCC5)c[nH]3)CO4)ccnc2N1 (stereo not shown) with RAF dimers in HCT-116 cells, please?
427
